The reported numbers originate from patent US20240216395A1.

test: Abuse potential main study: plasma pharmacokinetics after a single oral dose; format: in vivo, human; conditions: human, plasma, po, 60 mg, 60 mg single oral dose; read-out: Tmax, median
readout: Tmax (h)
Numbers only, in h.

What value of measured Tmax is listed for C[C@@]1(O)CC[C@H]2[C@H](CC[C@@H]3[C@@H]2CC[C@]2(C)[C@@H](C(=O)Cn4cc(C#N)cn4)CC[C@@H]32)C1 [Compound (1)] ?
5.1

* * *

assay: Abuse potential main study: plasma pharmacokinetics after a single oral dose; type: in vivo, human; details: human, plasma, oral; 30, 60, 90 mg; read-out: AUC0-24 values, range over doses
readout: AUC(0-t)

Look at this compound and give its reported AUC(0-t). C[C@@]1(O)CC[C@H]2[C@H](CC[C@@H]3[C@@H]2CC[C@]2(C)[C@@H](C(=O)Cn4cc(C#N)cn4)CC[C@@H]32)C1 [Compound (1)]
520 to 1330 ng·h/mL
